Sourced from patent US5605929A

Measured inhibition at 5 µM by item
# measured_on: 5α-Reductase of Rat Liver Microsomes (Rattus norvegicus, UniProt P24008)
# Sequence (P24008 whole entry): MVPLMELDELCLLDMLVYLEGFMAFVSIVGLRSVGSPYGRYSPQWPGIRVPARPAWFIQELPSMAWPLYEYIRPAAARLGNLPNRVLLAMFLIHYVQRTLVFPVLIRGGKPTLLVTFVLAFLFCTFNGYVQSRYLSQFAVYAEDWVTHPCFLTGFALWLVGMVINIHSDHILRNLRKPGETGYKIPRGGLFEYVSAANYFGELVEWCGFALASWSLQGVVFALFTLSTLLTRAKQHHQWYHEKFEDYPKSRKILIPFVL
# experiment_description: biochemical
# measurement_conditions: read-out: % Inhibition of [^3 H]4-MA binding, Table 2, 5 μM

Solved cases (8 shown):
molecule	inhibition at 5 µM
CCCCC/C=C\C/C=C\C/C=C\CCCCCOC(C)=O [γ-Linolenyl Acetate, γ-linolenyl acetate]	< 10%
CC/C=C\C/C=C\C/C=C\CCCCCCCCCC(=O)O [11,14,17-cis-Eicosatrienoic Acid, 11,14,17-eicosatrienoic acid]	< 10%
CC/C=C\C/C=C\C/C=C\CCCCCCCCCC(=O)Cl [11,14,17-cis-Eicosatrienoyl Chloride, 11,14,17-eicosatrienoyl chloride]	< 10%
CCCCC/C=C\C/C=C\C/C=C\CCCCCCC(=O)O [8,11,14-cis-Eicosatrienoic Acid, 8,11,14-eicosatrienoic acid]	< 10%
CCCCC/C=C\C/C=C\CCCCCCCCCC(=O)OC [11,14-cis-Eicosadienoate, methyl 11,14 eicosadienoate]	< 10%
CCCCC/C=C\C/C=C\CCCCCCCCCCCC(=O)O [13,16-Docosadienoic Acid, 13,16-docosadienoic acid]	< 10%
CCCC/C=C\CCCCCCCCCCCC(=O)O [13-Octadecenoic Acid, 13-octadecenoic acid]	< 10%
CCCCC/C=C\C/C=C\C/C=C\CCCCC(=O)OCC(COC(=O)CCCC/C=C\C/C=C\C/C=C\CCCCC)OC(=O)CCCC/C=C\C/C=C\C/C=C\CCCCC [Tri-γ-Linolenin, tri-γ-linolenin]	< 10%

I'd like to know its inhibition at 5 µM. The molecule in question is CCCCCCCC/C=C\CCCCCCCCCC(=O)O [11-Eicosenoic Acid, 11 eicosenoic acid]
< 10%

Query: inhibition at 5 µM; subject: CCCCC/C=C\C/C=C\CCCCCCCCCC(=O)O [11,14-cis-Eicosadienoic Acid, 11,14 eicosadienoic acid]
< 10%

Given CCCCCCCCCCCCCC/C=C\CCCC(=O)O [5-Eicosenoic Acid, 5-eicosenoic acid] , state its recorded inhibition at 5 µM.
< 10%

Any idea what inhibition at 5 µM was measured for CCCCC/C=C\C/C=C\C/C=C\CCCCC(=O)OCC(O)CO (stereo not drawn) [Monoγ-Linolenin] ?
< 10%

// inhibition at 5 µM lookup, key: CCCCC/C=C\C/C=C\C/C=C\C/C=C\CCCCCC(=O)O
< 10%

Entry CCCCCC/C=C\CCCCCCCCC(=O)O [10-cis-Heptadecenoic Acid, 10-heptadecenoic acid] : reported inhibition at 5 µM = ?
< 10%

Suppose we examine the molecule CCCC/C=C\CCCCCCCCC(=O)O [10-Pentadecenoic Acid, 10-pentadecenoic acid] ; what inhibition at 5 µM value has been reported?
< 10%

---

# measured_on: UniProt P24008
# experiment_description: [3H]4-MA binding assay, rat liver microsomes (tea catechins)
# measurement_conditions: read-out: % Inhibition of [^3 H]4-MA binding
Measured inhibition at 20 µM of individual entries
Your answer should be a plain number; it is taken to be in %.

Fill in the blank: the reported inhibition at 20 µM of O=C(O[C@H]1Cc2c(O)cc(O)cc2O[C@@H]1c1ccc(O)c(O)c1)c1cc(O)c(O)c(O)c1 [CG, (-)Catechin-3-gallate] is ____.
53

For the compound shown here, O=C(O[C@@H]1Cc2c(O)cc(O)cc2O[C@@H]1c1cc(O)c(O)c(O)c1)c1cc(O)c(O)c(O)c1 [EGCG, (-)Epigallocatechin-3-gallate] , give the reported inhibition at 20 µM.
79

Which inhibition at 20 µM is listed for O=C(O[C@@H]1Cc2c(O)cc(O)cc2O[C@@H]1c1ccc(O)c(O)c1)c1cc(O)c(O)c(O)c1 [ECG, (-)Epicatechin-3-gallate] ?
74
